molecular target: reduced glutathione (Glut RED, ECG); assay: UV spectrophotometry binding to reduced glutathione; conditions: UV spectrophotometry at 200 nm, pH 7.00 phosphate-buffered saline, ca. 24 °C
Where a name gives a salt, the structure may show the parent alone.
PROPERTY_MEASURED: Kd (µM)
# value in µM; strip the unit string

Dear colleague, I am looking for the recorded Kd of the following compound: O=C1O[C@H]([C@@H](O)CO)C(O)=C1O
60

# input compound: NCCc1ccc(O)c(O)c1 ; wanted: its Kd
90

Reported Kd, compound O=C1OC(C(O)CO)C(=O)C1=O (stereo not shown) [Dehydro Asc, dehydroascorbic acid] : ____
60

Please give the measured Kd for this compound: CNC[C@H](O)c1ccc(O)c(O)c1 [Epinephrine, epinephrine HCl]
40

Give the measured Kd of COc1ccc2[nH]cc(CCNC(C)=O)c2c1 .
100

Name the reported Kd value associated with the compound CNC[C@H](O)c1cccc(O)c1
5

Consider the compound N[C@@H](Cc1ccc(O)cc1)C(=O)O and give its measured Kd.
130

Please look up its Kd: N[C@@H](Cc1ccc(O)c(O)c1)C(=O)O [L-DOPA, L-3,4-dihydroxyphenylalanine]
50

Requested field: Kd. Item: NCCc1c[nH]cn1
500

What does the record list as Kd for NCCc1c[nH]c2ccc(O)cc12 ?
70

Consider the compound shown here: NC[C@H](O)c1ccc(O)c(O)c1 [Norepinephrine, norepinephrine HCl] What is its recorded Kd?
110
